Target: Nuclear receptor ROR-gamma (Homo sapiens)
Assay: Transrepression of recombinant human GAL4-DBD fused RORgammat LBD expressed in HEK293 cells after 20 hrs by luciferase reporter gene assay
Format: cell-based
QUANTITY: Efficacy
Answer format: number, then unit.

These recorded examples may help you get a feel for the data.
1. CCOC(=O)C(C)(C)c1ccc(NC(=O)Cc2ccc(S(=O)(=O)CC)cc2)cc1 93%
2. CCS(=O)(=O)c1ccc(CC(=O)Nc2ccc(C(C)(C)C(=O)N3Cc4ccccc4C3)cc2)cc1 92%

Q: State its Efficacy: `CCS(=O)(=O)c1ccc(CC(=O)Nc2ccc(C(C)(C)C(=O)Nc3cccc(F)c3)cc2)cc1`
Result: 94%

Taken from ChEMBL document CHEMBL4261613.
